Tested on: Yap1 mRNA
protocolNotes: Antisense inhibition of human Yap1 in SNU-449 cells by modified oligonucleotides, single dose (Example 5, RTS36584)
Format: cell-based
measurementConditions: Table 49; Yap1 mRNA level relative to untreated control; modified oligonucleotides targeting SEQ ID NO.: 1 and 2
Strand notation (5' to 3'): a small letter for the sugar, then the base; units joined by * are phosphorothioate-linked, units joined directly phosphodiester-linked; [ ] holds rarer units or linkages, { } end groups; capitals alone tell only the bases. e = 2'-O-(2-methoxyethyl) (MOE); k = constrained ethyl (cEt); [5mC] = 5-methylcytosine; d = 2'-deoxy (DNA)
Class boundaries, taken from values of YAP1 (% UT), are as follows: low band (below 20 % UT), middle band (20 % UT to below 60 % UT), high band (60 % UT or more)

substance: 1198366 (kA*k[5mC]*kT*dA*dA*dG*dT*dA*dA*dG*dG*dT*kT*eT*k[5mC]*e[5mC]; antisense) [Compound 1198366]
targetOrTestSystem: Yap1 mRNA
assignedLabel: middle band

### Prompt State the band of 1198546 (antisense kG*kA*kA*dA*dT*dT*dG*dT*d[5mC]*dT*d[5mC]*dA*kT*kG*k[5mC]*e[5mC]) [Compound 1198546]
### Response low band

### Prompt State the band of 1198368 (kA*kG*kA*d[5mC]*dT*dA*dA*dG*dT*dA*dA*dG*kG*eT*kT*eT; antisense) [Compound 1198368]
### Response high band

### Prompt State the band of 1198555 (antisense kA*kT*kT*dA*dG*dA*dG*dT*dA*dT*dG*dT*kG*kG*k[5mC]*eA) [Compound 1198555]
### Response low band

### Prompt State the band of 1198361 (kT*kA*kA*dG*dG*dT*dT*dT*d[5mC]*d[5mC]*d[5mC]*dA*kG*eA*kT*eT; antisense) [Compound 1198361]
### Response middle band

### Prompt State the band of 1198575 (antisense kT*kT*kG*dG*dA*dA*dG*dA*dT*d[5mC]*dT*dG*kA*kA*kA*e[5mC]) [Compound 1198575]
### Response high band

### Prompt State the band of 1198582 (antisense kA*kT*kA*dG*dT*dG*d[5mC]*dT*dT*dT*dG*dG*kA*kA*kG*eA) [Compound 1198582]
### Response high band

### Prompt State the band of 1198584 (antisense TTAGGATGCATGGTTT; chemistry not fully specified) [Compound 1198584]
### Response middle band

### Prompt State the band of 1198553 (antisense kT*kA*kG*dA*dG*dT*dA*dT*dG*dT*dG*dG*k[5mC]*kA*kA*eT) [Compound 1198553]
### Response low band

### Prompt State the band of 1198556 (antisense kT*kA*kT*dT*dA*dG*dA*dG*dT*dA*dT*dG*kT*kG*kG*e[5mC]) [Compound 1198556]
### Response middle band

### Prompt State the band of 1198559 (antisense kT*k[5mC]*kT*dA*dT*dA*dT*dT*dA*dG*dA*dG*kT*kA*kT*eG) [Compound 1198559]
### Response middle band

### Prompt State the band of 1198365 (k[5mC]*kT*kA*dA*dG*dT*dA*dA*dG*dG*dT*dT*kT*e[5mC]*k[5mC]*e[5mC]; antisense) [Compound 1198365]
### Response low band

### Prompt State the band of 1198576 (antisense kT*kT*kT*dG*dG*dA*dA*dG*dA*dT*d[5mC]*dT*kG*kA*kA*eA) [Compound 1198576]
### Response high band
